# Tested on: NB69;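 also: growth inhibition of NB69 cells, determined by a cell viability assay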
# protocol: cells
# Type: functional, cell-based, Homo sapiens
# assay.context: Homo sapiens, NB69
# Description: SANGER: Inhibition of human NB69 cell growth in a cell viability assay.
I'd appreciate it if you could supply IC50 values for the items below.

-- ask Query IC50 on NB69 for CN1CCN(CCOc2cc(OC3CCOCC3)c3c(Nc4c(Cl)ccc5c4OCO5)ncnc3c2)CC1
-- reply 1.37 µM

-- ask Query IC50 on NB69 for CS(=O)(=O)CCNCc1ccc(-c2ccc3ncnc(Nc4ccc(OCc5cccc(F)c5)c(Cl)c4)c3c2)o1
-- reply > 2 µM

-- ask Query IC50 on NB69 for CC1=C2C[C@H]3[C@@H](CC=C4C[C@@H](O)CC[C@@]43C)[C@@H]2CC[C@]12O[C@@H]1C[C@H](C)CN[C@H]1[C@H]2C
-- reply > 16 µM

-- ask Query IC50 on NB69 for Cn1cc(C2=C(c3ccc(Cl)cc3Cl)C(=O)NC2=O)c2ccccc21
-- reply > 10 µM

---

# Test system: D-263MG
# protocol: cells
# Assay type: functional, cell-based, Homo sapiens
# assay.context: Homo sapiens, D-263MG
# Description: SANGER: Inhibition of human D-263MG cell growth in a cell viability assay.
pIC50: −log10 of the molar value.
measured.parameter: pIC50

-- ask Recorded pIC50 of CN(c1ncccc1CNc1nc(Nc2ccc3c(c2)CC(=O)N3)ncc1C(F)(F)F)S(C)(=O)=O [PF-00562271] , please.
-- reply < 5.59

-- ask Recorded pIC50 of O=C(NOCC1CC1)c1ccc(F)c(F)c1Nc1ccc(I)cc1Cl [CI-1040] , please.
-- reply 5.23

-- ask Recorded pIC50 of O=C1N=C(NCc2cccs2)S/C1=C\c1ccc2ncccc2c1 , please.
-- reply < 5.30

-- ask Recorded pIC50 of CCc1nc(N)nc(N)c1-c1ccc(Cl)cc1 [PYRIMETHAMINE] , please.
-- reply < 4.70

-- ask Recorded pIC50 of Cn1cncc1[C@@](N)(c1ccc(Cl)cc1)c1ccc2c(c1)c(-c1cccc(Cl)c1)cc(=O)n2C [TIPIFARNIB] , please.
-- reply < 4.80

-- ask Recorded pIC50 of C=C1C(=O)O[C@@H]2C3O[C@]3(C)CC/C=C(\C)CC[C@@H]12 (some centres not stated) , please.
-- reply < 5.30

-- ask Recorded pIC50 of CC(=O)O[C@@]12CO[C@@H]1C[C@H](O)[C@@]1(C)C(=O)[C@H](O)C3=C(C)[C@@H](OC(=O)[C@H](O)[C@@H](NC(=O)OC(C)(C)C)c4ccccc4)C[C@@](O)([C@@H](OC(=O)c4ccccc4)[C@H]21)C3(C)C [DOCETAXEL] , please.
-- reply 9.02

-- ask Recorded pIC50 of C[C@]1(O)C[C@@H](c2nc(-c3ccc4ccc(-c5ccccc5)nc4c3)c3c(N)nccn32)C1 [LINSITINIB] , please.
-- reply < 5.59

-- ask Recorded pIC50 of COc1cc([C@@H]2c3cc4c(cc3[C@@H](O[C@@H]3O[C@@H]5CO[C@@H](C)O[C@H]5[C@H](O)[C@H]3O)[C@H]3COC(=O)[C@H]23)OCO4)cc(OC)c1O [ETOPOSIDE] , please.
-- reply < 4.80

-- ask Recorded pIC50 of COC(=O)CNC(=O)C(=O)OC , please.
-- reply 3.39

-- ask Recorded pIC50 of Cn1cc(C2=C(c3ccc(Cl)cc3Cl)C(=O)NC2=O)c2ccccc21 [SB-216763] , please.
-- reply < 5.00

-- ask Recorded pIC50 of CS(=O)(=O)CCNCc1ccc(-c2ccc3ncnc(Nc4ccc(OCc5cccc(F)c5)c(Cl)c4)c3c2)o1 [LAPATINIB] , please.
-- reply < 5.70
